Assay: CCTE_Shafer_MEA_acute_per_burst_spike_number_mean: CCTE's Neural Acute Assay for Average Number of Spikes Per Burst, Shafer Lab (AID 2284015);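 also: hits are decreases in mean spikes per burst versus baseline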
Activity calls are given as the source filed them. The calls were made as follows: active = hit-call score of the fitted dose curve at least 0.9, where 1 is the maximum; inactive = score below 0.9.
Hi! Could you answer with just one of these? 1.0 = active, 0.0 = inactive

// below: answered compounds
• C#CCOS(=O)OC1CCCCC1Oc1ccc(C(C)(C)C)cc1 (stereo unspecified) = 1.0
• CC(C)Oc1cc(-n2nc(C(C)(C)C)oc2=O)c(Cl)cc1Cl = 0.0
• CC1COC(Cn2cncn2)(c2ccc(Oc3ccc(Cl)cc3)cc2Cl)O1 (stereo unspecified) = 0.0
• N#CC(CCc1ccc(Cl)cc1)(Cn1cncn1)c1ccccc1 (stereo unspecified) = 0.0
• C=CCC1=C(C)[C@@H](OC(=O)[C@@H]2[C@@H](C=C(C)C)C2(C)C)CC1=O = 0.0

We next turn to a different compound, shown below.
Prompt: Any idea what this test logged for Cc1ccc(-c2c(Cl)nc(C#N)n2S(=O)(=O)N(C)C)cc1 ?
Completion: 0.0

----------
Test: APR_HepG2_MitoticArrest_1hr: Apredica 1-hour HepG2 Assay for Mitotic Arrest (AID 2282672)
Details: high-content imaging, actives raise or lower the signal
The source made the active and inactive calls. The calls were made as follows: active = hit-call score of the fitted dose curve at least 0.9, where 1 is the maximum; inactive = score below 0.9.
Hi! Could you answer with just one of these? label 1 = active, label 0 = inactive

// below: answered compounds
* O=C(Nc1ccccc1)Nc1ccnc(Cl)c1 | label 0
* CS/C(C)=N/OC(=O)N(C)SN(C)C(=O)O/N=C(\C)SC | label 1
* O=C(O)COc1nc(Cl)c(Cl)cc1Cl | label 0

We next turn to a different compound, shown below.
Prompt: Any idea what this test logged for CC(Oc1ccc(Cl)cc1Cl)C(=O)O (centres undefined) ?
Completion: label 0

----------
Assay: BSK_3C_Vis: BioMAP Diversity Plus: 3C Assay for Morphology Visualization (AID 2283025);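 also: fitted both ways so gain or loss versus DMSO counts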
Details: primary human endothelial cells (HUVEC)
Calls of active or inactive are those of the source. Rule for the calls: active = hit-call score of the fitted dose curve at least 0.9, where 1 is the maximum; inactive = score below 0.9.
Hi! Could you answer with just one of these? t for active, f for inactive

Prompt: Any idea what this test logged for COC(=O)c1ccccc1C(=O)OC ?
Completion: f

Prompt: Any idea what this test logged for CCc1nn(C)c(C(=O)NCc2ccc(C(C)(C)C)cc2)c1Cl ?
Completion: t

Prompt: Any idea what this test logged for CCOC(=O)C(Cl)Cc1cc(-n2nc(C)n(C(F)F)c2=O)c(F)cc1Cl (stereo not given) ?
Completion: f

----------
Read-out: JUN Transcription Factor, JUN (gene 3725)
Assay: LTEA_HepaRG_JUN: Life Technologies and Expression Analysis (LTEA) Assay for JUN Transcription Factor using HepaRG (AID 2283513)
Settings: mRNA level, 48 h; actives raise or lower the signal
Method: LTEA_HepaRG is a cell based, multiplexed-readout assay that uses HepaRG, a human liver cell line, with measurements taken at 48 hours after chemical dosing on a 96-well plate.LTEA_HepaRG_JUN is one of 102 assay component(s) measured in the LTEA HepaRG cell culture assay. It is a marker of Cell proliferation, survival, death.Data from the assay component LTEA_HepaRG_JUN was analyzed into 1 endpoint. […]
Activity calls are given as the source filed them. Rule for the calls: active = hit-call score of the fitted dose curve at least 0.9, where 1 is the maximum; inactive = score below 0.9.
Hi! Could you answer with just one of these? active, inactive

// below: answered molecules
• O=C(Nc1ccccc1)Nc1ccnc(Cl)c1 = inactive
• Cc1c(F)c(F)c(COC(=O)C2C(/C=C(\Cl)C(F)(F)F)C2(C)C)c(F)c1F (centres undefined) = inactive
• N#Cc1nn(-c2c(Cl)cc(C(F)(F)F)cc2Cl)c(N)c1S(=O)C(F)(F)F (centres undefined) = active

We next turn to a different molecule, shown below.
Prompt: Any idea what this test logged for CO/C=C(/C(=O)OC)c1ccccc1Oc1cc(Oc2ccccc2C#N)ncn1 ?
Completion: inactive
